Every entry's value here was drawn from ChEMBL document CHEMBL2203157.

- test-target: TGF-beta receptor type-1 (Homo sapiens)
- test-name: Inhibition of human ALK5 using GST-tagged Smad3 as substrate assessed as substrate phosphorylation after 30 mins by ELISA
readout-type: pIC50
# pIC50 is unitless: minus log10 of the molar concentration; print number only

Q: Which pIC50 value belongs to CCc1nc(-c2nc(C)cs2)c(-c2ccc3ncsc3c2)[nH]1 ?
A: 8.05

Q: Cc1csc(-c2nc(C3CCCC3)[nH]c2-c2ccc3ncsc3c2)n1 , same question.
A: 8.06

Q: Entry CCCS(=O)(=O)NCc1nc(-c2nc(C)cs2)c(-c2ccc3ncsc3c2)[nH]1 please
A: 7.77

---

- test-target: TGF-beta receptor type-1 (Homo sapiens)
- Sequence (P36897 whole entry): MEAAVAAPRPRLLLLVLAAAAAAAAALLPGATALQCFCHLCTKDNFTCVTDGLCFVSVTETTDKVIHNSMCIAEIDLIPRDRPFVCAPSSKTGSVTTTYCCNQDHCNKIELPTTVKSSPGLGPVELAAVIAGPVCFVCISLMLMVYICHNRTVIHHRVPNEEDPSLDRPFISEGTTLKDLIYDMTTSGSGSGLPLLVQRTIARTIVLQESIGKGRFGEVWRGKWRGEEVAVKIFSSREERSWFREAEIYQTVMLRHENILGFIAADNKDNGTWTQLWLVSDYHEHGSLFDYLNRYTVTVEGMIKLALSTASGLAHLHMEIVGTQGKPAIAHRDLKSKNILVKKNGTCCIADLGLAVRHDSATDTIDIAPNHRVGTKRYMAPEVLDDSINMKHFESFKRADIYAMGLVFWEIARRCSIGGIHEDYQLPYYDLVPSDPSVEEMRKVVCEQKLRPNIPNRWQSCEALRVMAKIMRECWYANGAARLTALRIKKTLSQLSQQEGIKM
- test-name: Inhibition of ALK5-mediated […]-induced Smad2/3 phosphorylation in human A549 cells preincubated for 2 hrs before addition of […] after 1 hr by fluorescence analysis
- Format: cell-based
Would you mind telling me the reported pIC50 of each entry?
Scale explanation: pIC50 corresponds to minus log10 of a concentration expressed in moles per litre.

Q: Give the reported pIC50 for Cc1csc(-c2nc(C3CCCC3)[nH]c2-c2ccc3ncsc3c2)n1 (system: TGF-beta receptor type-1 (Homo sapiens)).
A: 7.40

Q: Another compound to look at: Cc1csc(-c2nc(C3CCCCC3)[nH]c2-c2ccc3ncsc3c2)n1
A: 7.12

Q: Another compound: CCNC(=O)CCc1nc(-c2nc(C)cs2)c(-c2ccc3ncsc3c2)[nH]1
A: 7.15

Q: Another compound: CNC(=O)CCCc1nc(-c2nc(C)cs2)c(-c2ccc3ncsc3c2)[nH]1
A: 6.64

Q: For CCCCNC(=O)c1nc(-c2nc(C)cs2)c(-c2ccc3ncsc3c2)[nH]1 then?
A: 6.38

Q: Another: CCCc1nc(-c2nc(C)cs2)c(-c2ccc3ncsc3c2)[nH]1
A: 7.48

Q: Now this one: CCCOC(=O)NCc1nc(-c2nc(C)cs2)c(-c2ccc3ncsc3c2)[nH]1
A: 7.44

Q: Would you mind doing CCCC(=O)N(C)Cc1nc(-c2ccc3ncsc3c2)c(-c2nc(C)cs2)[nH]1 as well?
A: 6.96

Q: Please answer likewise for Cc1csc(-c2nc(CC(C)C)[nH]c2-c2ccc3ncsc3c2)n1
A: 7.37

Q: Please give the result for CCCCCOC(=O)NCc1nc(-c2nc(C)cs2)c(-c2ccc3ncsc3c2)[nH]1 too.
A: 6.85

Q: Subsequent entry: CCNC(=O)NCc1nc(-c2nc(C)cs2)c(-c2ccc3ncsc3c2)[nH]1
A: 6.89

Q: Then what about the compound CCCS(=O)(=O)NCc1nc(-c2nc(C)cs2)c(-c2ccc3ncsc3c2)[nH]1 ?
A: 6.82

Q: Let us now turn to Cc1csc(-c2nc(CNC(=O)OCC(C)C)[nH]c2-c2ccc3ncsc3c2)n1
A: 7.44

Q: Repeat for the following compound: COC(=O)NCc1nc(-c2nc(C)cs2)c(-c2ccc3ncsc3c2)[nH]1
A: 7.42

Q: Lookup CCCC(=O)CCc1nc(-c2nc(C)cs2)c(-c2ccc3ncsc3c2)[nH]1
A: 7.38

Q: Proceed to CCNC(=O)OCc1nc(-c2nc(C)cs2)c(-c2ccc3ncsc3c2)[nH]1
A: 7.03

Q: Further, for Cc1csc(-c2nc(CNC(=O)OC(C)C)[nH]c2-c2ccc3ncsc3c2)n1 ?
A: 7.39

Q: Repeat with CCCCNCc1nc(-c2nc(C)cs2)c(-c2ccc3ncsc3c2)[nH]1
A: 7.14

Q: Also Cc1csc(-c2nc(C(C)C)[nH]c2-c2ccc3ncsc3c2)n1 ?
A: 7.32

Q: Further, for Cc1csc(-c2nc(C3CCOCC3)[nH]c2-c2ccc3ncsc3c2)n1 ?
A: 7.00

Q: Moving on to the next compound: CCCCOC(=O)NCc1nc(-c2nc(C)cs2)c(-c2ccc3ncsc3c2)[nH]1
A: 7.13

Q: Continue with Cc1csc(-c2nc(C3CCC(=O)CC3)[nH]c2-c2ccc3ncsc3c2)n1
A: 7.05

Q: Also need CCCCCCc1nc(-c2nc(C)cs2)c(-c2ccc3ncsc3c2)[nH]1 , thanks.
A: 6.92

Q: Repeat for the following compound: Cc1csc(-c2nc(C3CC3)[nH]c2-c2ccc3ncsc3c2)n1
A: 7.35

Q: Subsequent entry: Cc1csc(-c2nc(C(C)(C)C)[nH]c2-c2ccc3ncsc3c2)n1
A: 7.17

Q: Now consider Cc1csc(-c2nc(C(F)(F)F)[nH]c2-c2ccc3ncsc3c2)n1 .
A: 7.31

Q: For CCOC(=O)NCc1nc(-c2nc(C)cs2)c(-c2ccc3ncsc3c2)[nH]1 then?
A: 7.46
